Entry source: patent US6331553A

Target: nNOS (Rattus norvegicus)
Construct: a soluble cytosolic fraction of the finally obtained supernatant was used as the crude enzyme of nNOS; from tissue; host or cells: rat cerebral cortex, soluble cytosolic fraction (100,000×g supernatant)
Test: biochemical
Set-up: species or system male Sprague Dawley (SD) rats (cerebral cortex)
Conditions: mean values, duplicate, crude enzyme from rat cerebral cortex; 37° C. 10 min; read-out: Inhibitory action IC50 nNOS
VALUE TYPE: pIC50
Answers are plain numbers, as −log10 of the molar value.

Known results for molecules:
- Cc1ccc([N+](=O)[O-])c(Nc2cccc(CN)c2)c1: 6.90
- Cc1ccnc(Nc2cccc(C3(N)CCC3)c2)c1: 7.40

Consider the following items and state reported pIC50 for each.
1. CCOc1c(CN)cccc1Nc1nc(OC)ccc1[N+](=O)[O-]
2. CCc1ccc([N+](=O)[O-])c(Nc2cccc(CN)c2)n1.Cl [Example 53, hydrochloride]
3. CCOc1c(CN)cccc1Nc1cc(C)ccn1
4. Cc1ccnc(Nc2ccc(Cl)c(CN)c2)c1

1: 7.25; 2: 7.06; 3: 7.74; 4: 7.34

----------
Target: iNOS (Rattus norvegicus, UniProt Q06518)
VALUE TYPE: pIC50
Numbers only, as −log10 of the molar value.

Record request: pIC50 value, item N=C(NCCC[C@H](N)C(=O)O)N[N+](=O)[O-] [L-NA, N^G -nitro-L-arginine, reference compound]
5.46

----------
Target: nNOS (Rattus norvegicus)
Construct: a soluble cytosolic fraction of the finally obtained supernatant was used as the crude enzyme of nNOS; from tissue; host or cells: rat cerebral cortex, soluble cytosolic fraction (100,000×g supernatant)
Test: biochemical
Parameters: species or system male Sprague Dawley (SD) rats (cerebral cortex)
Settings: ratio of IC50 values eNOS/nNOS
Answer each item with its documented Selectivity eNOS/nNOS.
Answers are plain numbers.

* CCOc1c(CN)cccc1Nc1cc(C)ccn1 [Example 490] | 19
* Cc1ccnc(Nc2cccc(C3(N)CCC3)c2)c1 [Example 488] | 8
* Cc1ccnc(Nc2cccc(CN)c2OC(C)C)c1 [Example 543] | 20

Find the measured Selectivity eNOS/nNOS: item CCc1ccc(Nc2cc(C)ccn2)cc1CN [Example 482] , target or system nNOS (Rattus norvegicus).
27

----------
Answer each item with its documented Selectivity eNOS/nNOS.
Molecular target: nNOS (Rattus norvegicus)
Construct: a soluble cytosolic fraction of the finally obtained supernatant was used as the crude enzyme of nNOS; from tissue; host or cells: rat cerebral cortex, soluble cytosolic fraction (100,000×g supernatant)
Assay: biochemical
Parameters: species or system male Sprague Dawley (SD) rats (cerebral cortex)
Details: ratio of IC50 values eNOS/nNOS
Numbers only.

Known results for molecules:
- Cc1ccc([N+](=O)[O-])c(Nc2cccc(CN)c2)c1: 5
- CCOc1c(CN)cccc1Nc1nc(OC)ccc1[N+](=O)[O-]: 44

Consider the following items and state reported Selectivity eNOS/nNOS for each.
1. COc1ccc([N+](=O)[O-])c(Nc2cccc(CN)c2Cl)n1
2. CCOc1c(Nc2cc(C)ccn2)ccc(Cl)c1CN
3. COc1ccc([N+](=O)[O-])c(Nc2ccc(Cl)c(CN)c2)n1
4. CCCOc1c(CN)cccc1Nc1cc(C)ccn1
5. CSc1ccc([N+](=O)[O-])c(Nc2cccc(CN)c2)n1
6. Cc1ccnc(Nc2cccc(CN)c2C)c1
7. COc1ccc([N+](=O)[O-])c(Nc2ccc(F)c(CN)c2)n1
8. Cc1ccc([N+](=O)[O-])c(Nc2cccc(CN)c2)n1.Cl

25
25
12
45
13
25
14
19

----------
Answer each item with its documented IC50.
Target: nNOS (Rattus norvegicus, UniProt P29476)
Construct: a soluble cytosolic fraction of the finally obtained supernatant was used as the crude enzyme of nNOS; from tissue; host or cells: rat cerebral cortex, soluble cytosolic fraction (100,000×g supernatant)
Assay: biochemical
Design: species or system male Sprague Dawley (SD) rats (cerebral cortex)
Conditions: mean values, duplicate, crude enzyme from rat cerebral cortex; 37° C. 10 min; read-out: Inhibitory action IC50 nNOS
Numbers only, in nM.

* Cc1ccnc(Nc2cccc(C(C)(C)N)c2)c1 [Example 479] | 66.9

Consider the following items and state reported IC50 for each.
1. CCOc1ccc([N+](=O)[O-])c(Nc2cccc(CN)c2)n1 [Example 57]
2. CCOc1c(Nc2cc(C)ccn2)ccc(C)c1CN [Example 522]
3. CCCOc1c(CN)cccc1Nc1cc(C)ccn1 [Example 506]
4. Cc1ccnc(Nc2cccc(CN)c2Cl)c1 [Example 485]
5. COc1ccc([N+](=O)[O-])c(Nc2cccc(CN)c2)c1 [Example 153]
6. COc1ccc([N+](=O)[O-])c(Nc2cccc(CN)c2)n1 [Example 18]
7. CCOc1c(Nc2cc(C)ccn2)ccc(Cl)c1CN [Example 521]

70.8
19.7
29.1
54.4
29.8
22.6
19.5

Find the measured IC50: item Cc1ccnc(Nc2cccc(CN)c2C)c1 [Example 481] , target or system nNOS (Rattus norvegicus, UniProt P29476).
78.1

----------
Target: nNOS (Rattus norvegicus)
Construct: a soluble cytosolic fraction of the finally obtained supernatant was used as the crude enzyme of nNOS; from tissue; host or cells: rat cerebral cortex, soluble cytosolic fraction (100,000×g supernatant)
Assay: biochemical
Parameters: species or system male Sprague Dawley (SD) rats (cerebral cortex)
Settings: ratio of IC50 values eNOS/nNOS
Answer each item with its documented Selectivity eNOS/nNOS.
One number for each entry.

* Cc1ccnc(Nc2cccc(CN)c2Cl)c1 | 53
* COc1ccc([N+](=O)[O-])c(Nc2cccc(CN)c2OC)n1 | 32
* CCOc1ccc([N+](=O)[O-])c(Nc2cccc(CN)c2)n1 | 13
* CCOc1c(Nc2cc(C)ccn2)ccc(C)c1CN | 20

We now examine a further compound.
Record request: Selectivity eNOS/nNOS value, item "COc1ccc([N+](=O)[O-])c(Nc2ccc(CCN)cc2)n1"
11

----------
Target: eNOS (Bos taurus, UniProt P29473)
Construct: the resulting supernatant was used as the crude enzyme of eNOS; endogenous in cells; host or cells: CPAE (cow pulmonary arterial endothelium cells), 1% Triton X-100 extract
Sequence (P29473 2-1205): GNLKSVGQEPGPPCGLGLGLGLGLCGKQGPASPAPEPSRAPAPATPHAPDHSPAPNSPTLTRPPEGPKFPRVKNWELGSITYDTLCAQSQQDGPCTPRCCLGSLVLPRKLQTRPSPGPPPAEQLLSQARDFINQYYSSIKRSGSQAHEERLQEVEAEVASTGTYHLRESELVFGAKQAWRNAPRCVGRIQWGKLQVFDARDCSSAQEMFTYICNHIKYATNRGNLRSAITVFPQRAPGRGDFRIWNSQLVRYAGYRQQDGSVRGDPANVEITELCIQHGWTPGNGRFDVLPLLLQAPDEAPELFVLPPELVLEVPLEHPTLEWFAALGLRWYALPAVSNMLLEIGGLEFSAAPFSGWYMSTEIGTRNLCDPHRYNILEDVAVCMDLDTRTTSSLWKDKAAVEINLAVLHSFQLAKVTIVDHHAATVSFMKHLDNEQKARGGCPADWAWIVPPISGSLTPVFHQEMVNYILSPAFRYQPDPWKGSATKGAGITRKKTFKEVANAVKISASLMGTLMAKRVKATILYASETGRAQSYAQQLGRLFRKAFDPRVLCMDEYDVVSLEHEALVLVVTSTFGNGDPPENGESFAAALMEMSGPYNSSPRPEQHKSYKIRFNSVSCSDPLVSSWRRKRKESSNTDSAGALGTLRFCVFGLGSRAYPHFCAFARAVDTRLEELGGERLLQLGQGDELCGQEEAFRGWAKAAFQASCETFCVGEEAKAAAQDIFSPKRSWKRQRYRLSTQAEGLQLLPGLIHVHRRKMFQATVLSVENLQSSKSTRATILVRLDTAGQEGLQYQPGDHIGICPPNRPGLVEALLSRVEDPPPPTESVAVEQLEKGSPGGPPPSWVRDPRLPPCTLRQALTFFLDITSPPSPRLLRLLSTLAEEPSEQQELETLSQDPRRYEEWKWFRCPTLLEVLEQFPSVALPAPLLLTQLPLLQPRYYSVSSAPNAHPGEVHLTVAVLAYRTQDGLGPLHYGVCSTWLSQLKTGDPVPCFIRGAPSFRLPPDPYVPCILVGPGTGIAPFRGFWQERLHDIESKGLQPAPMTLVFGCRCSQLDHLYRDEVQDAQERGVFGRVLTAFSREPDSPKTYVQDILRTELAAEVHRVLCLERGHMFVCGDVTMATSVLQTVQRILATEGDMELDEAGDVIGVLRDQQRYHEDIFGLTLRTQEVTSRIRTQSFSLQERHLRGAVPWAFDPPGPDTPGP
Assay: Inhibitory effect on crude eNOS (conversion of L-[3H]arginine to L-[3H]citrulline)
Format: biochemical, Cow (pulmonary arterial endothelium cells, CPAE)
Settings: mean values, duplicate, crude enzyme from CPAE cells; 37° C. 10 min; read-out: Inhibitory action IC50 eNOS
VALUE TYPE: log10 of IC50 (log10 of the value in nM)
Would you kindly interpret these values as log10 of IC50 expressed in nM?

Known results for molecules:
- CCOc1c(CN)cccc1Nc1cc(C)ccn1: 2.54
- Cc1ccnc(Nc2cccc(CN)c2OC(C)C)c1: 2.40
- COc1ccc([N+](=O)[O-])c(Nc2cccc(CN)c2Cl)n1: 3.00
- Cc1ccnc(Nc2cccc(CN)c2C)c1: 3.30
- Cc1ccnc(Nc2cccc(CN)c2)c1: 2.65
- Cc1ccnc(Nc2cccc(C3(N)CCC3)c2)c1: 2.47
- Cc1ccc([N+](=O)[O-])c(Nc2cccc(CN)c2)n1.Cl [Example 52, hydrochloride]: 3.17
- COc1ccc([N+](=O)[O-])c(Nc2cccc(CN)c2OC)n1: 3.00

Consider the following items and state reported log10 of IC50 for each.
1. COc1ccc([N+](=O)[O-])c(Nc2cccc(CN)c2)n1
2. COc1ccc([N+](=O)[O-])c(Nc2cccc(C(C)(C)N)c2)n1
3. COc1ccc([N+](=O)[O-])c(Nc2ccc(F)c(CN)c2)n1
4. CSc1ccc([N+](=O)[O-])c(Nc2cccc(CN)c2)n1
5. COc1ccc([N+](=O)[O-])c(Nc2ccc(CCN)cc2)n1

2.51
2.41
2.44
3.21
3.09

----------
Answer each item with its documented pIC50.
Target: eNOS (Bos taurus)
Construct: the resulting supernatant was used as the crude enzyme of eNOS; endogenous in cells; host or cells: CPAE (cow pulmonary arterial endothelium cells), 1% Triton X-100 extract
Experiment: Inhibitory effect on crude eNOS (conversion of L-[3H]arginine to L-[3H]citrulline)
Type: biochemical, Cow (pulmonary arterial endothelium cells, CPAE)
Details: mean values, duplicate, crude enzyme from CPAE cells; 37° C. 10 min; read-out: Inhibitory action IC50 eNOS
One number for each entry, as −log10 of the molar value.

• COc1ccc([N+](=O)[O-])c(Nc2cccc(CN)c2C)n1 = 6.39
• CCOc1ccc([N+](=O)[O-])c(Nc2cccc(CN)c2)n1 = 6.02
• Cc1ccnc(Nc2cccc(C(C)(C)N)c2)c1 = 6.10
• COc1c(CN)cccc1Nc1cc(C)ccn1 = 6.15

Consider the following items and state reported pIC50 for each.
1. CCCOc1c(CN)cccc1Nc1cc(C)ccn1
2. CCOc1c(Nc2cc(C)ccn2)ccc(C)c1CN
3. COc1ccc([N+](=O)[O-])c(Nc2ccc(Cl)c(CN)c2)n1
4. CCOc1c(Nc2cc(C)ccn2)ccc(Cl)c1CN
5. Cc1ccc([N+](=O)[O-])c(Nc2cccc(CN)c2)c1
6. CCc1ccc(Nc2cc(C)ccn2)cc1CN

5.89
6.40
6.38
6.31
6.17
5.87
